Every entry's value here was drawn from patent US20030220524A1.

- Tested on: NB-4 leukemic cell line
- ASSAY INFO: MTT assay
- Type: cell-based, human
- EXPERIMENTAL CONTEXT: NB-4; 48 h; read-out: MTT50
READOUT KIND: pIC50
Numbers only, as −log10 of the molar value.

Reported pIC50 for CSSCS(=O)(=O)c1ccc(C)cc1 [Compound C, α-p-toluenesulfonyl dimethyl disulphide] : what is it?
4.93

----------
- Test system: WI38 non-transformed diploid fibroblasts
- ASSAY INFO: MTT assay
- Type: cell-based, human
- EXPERIMENTAL CONTEXT: in words
READOUT KIND: Viability of non-transformed human WI38 fibroblasts following exposure

Solved cases (4 shown):
Given CS(=O)(=O)CSCS(C)(=O)=O [G, 2,4,6-trithiaheptane 2,2,6,6-tetraoxide] , state its recorded Viability of non-transformed human WI38 fibroblasts following exposure.
not affected

// returns reported Viability of non-transformed human WI38 fibroblasts following exposure for input CS(=O)(=O)CSSc1ccccc1
decreased

Query (molecule): CSCSCS(C)(=O)=O ; field requested: Viability of non-transformed human WI38 fibroblasts following exposure
not affected

Which Viability of non-transformed human WI38 fibroblasts following exposure reading was recorded for the molecule COC(=O)CSSC [H, methyl 3,4-dithiopentanoate] ?
not affected

Your task in this section: give Viability of non-transformed human WI38 fibroblasts following exposure for each listed record.
1. CSSCCS(C)(=O)=O [F, 2,3,6-trithiaheptane 6,6,-dioxide]
2. CSSCS(=O)(=O)c1ccc(C)cc1 [Compound C, α-p-toluenesulfonyl dimethyl disulphide]
3. CSCSCSC
4. CSSCOC(C)=O [I, 2,3-dithiabutyl acetate]

1. not affected
2. decreased
3. not affected
4. decreased

Each of the following entries comes with a recorded value; kindly state Viability of non-transformed human WI38 fibroblasts following exposure for each.
1. c1ccc(SSc2ccccc2)cc1 [D, diphenyl disulphide]
2. CS(C)(=O)=O

1: decreased; 2: not affected

----------
- Test system: Aspergillus flavus
- ASSAY INFO: Antifungal paper disk test, diameter of clear zone
- Type: cell-based
- EXPERIMENTAL CONTEXT: 25 μg/disk; acetone
READOUT KIND: Diameter (mm) of clear Zone A. flavus
Numbers only, in mm.

Known Diameter (mm) of clear Zone A. flavus results, listed for orientation:
# Diameter (mm) of clear Zone A. flavus lookup, item Cc1ccc(S(=O)(=O)Sc2ccccc2)cc1
3.3

I'd like to know its Diameter (mm) of clear Zone A. flavus. The molecule in question is CSSCS(=O)(=O)c1ccccc1 [C6H5SO2CH2SSCH3, α-phenylsulfonyl dimethyl disulphide]
4.2

Please turn your attention to the following entry.
Could you share which Diameter (mm) of clear Zone A. flavus value was measured for CSSCS(C)(=O)=O [CH3SO2CH2SSCH3, α-methylsulfonyl dimethyl disulphide] ?
3.8

----------
- Tested on: KK leukemic cell line
- ASSAY INFO: MTT assay
- Type: cell-based, human
- EXPERIMENTAL CONTEXT: Homo sapiens; KK; 48 h; read-out: MTT50
READOUT KIND: pIC50
Numbers only, as −log10 of the molar value.

Data request, read-out pIC50, for CSSc1ccc([N+](=O)[O-])cc1 [M, methyl p-nitrophenyl disulphide]
4.98

// returns reported pIC50 for input COC(=O)CSSCC(=O)OC [O, dimethyl 3,4-dithiaadipate]
4.01

We next turn to a different compound, shown below.
So what's the measured pIC50 for this one? CSSCOC(C)=O [I, 2,3-dithiabutyl acetate]
4.50

----------
- Test system: KK leukemic cell line
- ASSAY INFO: MTT assay
- Format: cell-based, human
- EXPERIMENTAL CONTEXT: Homo sapiens; KK; 48 h; read-out: MTT50
READOUT KIND: IC50 (µM)
Answers are plain numbers, in µM.

In the examples that follow, each entry is paired with its recorded IC50.
Quick one: IC50 for CCC(=O)OCSSc1ccccc1 [Compound Q, 1-phenyl-1,2-dithiapropyl propionate] ?
23.7

# input molecule: c1ccc(SSc2ccccc2)cc1 [D, diphenyl disulphide] ; wanted: its IC50
12.8

May I ask what IC50 has been recorded for CSSCC(=O)c1ccccc1 [Compound P, phenacyl methyl disulphide] ?
65.2

I am curious: what IC50 value has been reported for CS(=O)(=O)CSCS(C)(=O)=O [G, 2,4,6-trithiaheptane 2,2,6,6-tetraoxide] ?
114

Lab note: next molecule to report on.
Quick one: IC50 for CS(=O)(=O)CSSc1ccccc1 ?
17.5

----------
- System: NB-4 leukemic cell line
- ASSAY INFO: MTT assay
- Type: cell-based, human
- EXPERIMENTAL CONTEXT: Homo sapiens; NB-4; 48 h; read-out: MTT50
Assign IC50 to each entry below.
Give bare numbers, in µM.

For the 4 compounds below, give their IC50 values.
1. CSSc1ccc([N+](=O)[O-])cc1 [M, methyl p-nitrophenyl disulphide]
2. CS(=O)(=O)CSSc1ccccc1 [E]
3. COC(=O)CSSCC(=O)OC [O, dimethyl 3,4-dithiaadipate]
4. CSSCC(=O)c1ccccc1 [Compound P, phenacyl methyl disulphide]

21.2
25.4
62.9
60.8

----------
- Test system: Normal bone marrow (mononucleated, T-cell depleted)
- ASSAY INFO: MTT assay
- Type: cell-based
- EXPERIMENTAL CONTEXT: T-cell; Normal bone marrow; 48 h; read-out: MTT50
READOUT KIND: pIC50
Answers are plain numbers, as −log10 of the molar value.

Here's what some known entries look like.
Which value of pIC50 has been reported for CS(=O)(=O)CSCS(C)(=O)=O [G, 2,4,6-trithiaheptane 2,2,6,6-tetraoxide] in the records?
3.94

Name the recorded pIC50 for CSSc1ccc([N+](=O)[O-])cc1 [M, methyl p-nitrophenyl disulphide] .
4.65

Given the molecule CSSCOC(C)=O [I, 2,3-dithiabutyl acetate] , what is its reported pIC50?
4.48

For every listed record, write down its pIC50.
1. c1ccc(SSc2ccccc2)cc1 [D, diphenyl disulphide]
2. CS(=O)(=O)CSSc1ccccc1 [E]

4.72
4.66

----------
I'd appreciate it if you could supply Diameter (mm) of clear Zone A. flavus values for the items below.
- Test system: Aspergillus flavus
- ASSAY INFO: Antifungal paper disk test, diameter of clear zone
- Type: cell-based
- EXPERIMENTAL CONTEXT: 25 μg/disk; acetone
One number for each entry, in mm.

Some solved cases for reference:
Could you tell me which Diameter (mm) of clear Zone A. flavus is on file for COC(=O)c1ccccc1SSC [o-CH3OC(O)(C6H4)SSCH3, methyl-o(methyldithio)benzoate] ?
4.3

Using the record for CS(=O)(=O)Sc1ccccc1 [L, Phenyl Methanethiosulfonate] , report its Diameter (mm) of clear Zone A. flavus.
3.7

What value of Diameter (mm) of clear Zone A. flavus has been reported for the following compound? CSSCS(=O)(=O)c1ccc(C)cc1 [Compound C, α-p-toluenesulfonyl dimethyl disulphide]
8.0

Hey, can you go through the list below and give me Diameter (mm) of clear Zone A. flavus for every item?
1. Cc1ccc(S(=O)(=O)Sc2ccc([N+](=O)[O-])cc2)cc1 [p-CH3(C6H4)SO2S(C6H4)NO2—p, p-Nitrophenyl p-Toluenethiosulfonate]
2. CCSSCS(C)(=O)=O [CH3SO2CH2SSCH2CH3, 2,4,5-trithiaheptane 2,2,-dioxide]
3. CSS(=O)(=O)c1ccc(C)cc1

1: 2.0; 2: 3.3; 3: 3.6

Here are 2 compounds. What values of Diameter (mm) of clear Zone A. flavus were reported for them?
1. CS(=O)(=O)Sc1ccc([N+](=O)[O-])cc1 [p-CH3SO2S(C6H4)NO2, p-Nitrophenyl Methanethiosulfonate]
2. O=S(=O)(Sc1ccccc1)c1ccccc1

1. 1.2
2. 3.8

----------
Hi there, I'd appreciate the recorded log10 of IC50 for every entry that follows.
- Tested on: AML-3 leukemic cell line
- ASSAY INFO: MTT assay
- Format: cell-based, human
- EXPERIMENTAL CONTEXT: AML-3; 48 h; read-out: MTT50
On a log10 scale: recorded IC50, unit µM.

Some compounds with recorded log10 of IC50:
// query log10 of IC50 value for entry COC(=O)CSSCC(=O)OC [O, dimethyl 3,4-dithiaadipate]
1.64

// log10 of IC50 lookup, key: CSSCCS(C)(=O)=O [F, 2,3,6-trithiaheptane 6,6,-dioxide]
1.64

Consider the compound shown here: CSSc1ccc([N+](=O)[O-])cc1 [M, methyl p-nitrophenyl disulphide] What is its recorded log10 of IC50?
0.93

I am curious: what log10 of IC50 value has been reported for COC(=O)CSSC [H, methyl 3,4-dithiopentanoate] ?
1.97

// query log10 of IC50 value for entry CS(=O)(=O)Sc1ccccc1 [L, Phenyl Methanethiosulfonate]
0.87

Hi, could you look up log10 of IC50 for each item in my list?
1. CSSCS(=O)(=O)c1ccc(C)cc1 [Compound C, α-p-toluenesulfonyl dimethyl disulphide]
2. CCCCCSSCS(C)(=O)=O

1. 1.23
2. 0.66
